We begin with a simple list: items and their reported Growth Inhibited Area M45 - H17.
# System: Bacillus subtilis M45
# ASSAY OVERVIEW: Mutagenicity Rec-assay, recombination repair deficient strain
# PROTOCOL CONDITIONS: 500 µg/disk; difference between strains
Kindly answer with a numeric value in mm, unit omitted.

Consider the worked cases shown below.
// returns Growth Inhibited Area M45 - H17 for O=C(O)c1ccc(NC2OC[C@@H](O)[C@H](O)[C@H]2O)cc1 (stereo partly drawn) [Compound 6, p-Aminobenzoic acid-N-D-xyloside] with Bacillus subtilis M45; value = 0

// returns Growth Inhibited Area M45 - H17 for O=C([O-])c1ccccc1NC1O[C@H](CO)[C@@H](O)[C@H](O)[C@H]1O.[Na+] (stereo partly drawn) [Compound 12, o-Aminobenzoic acid-N-D-glucoside] with Bacillus subtilis M45; value = 0

Consider the record given below.
// returns Growth Inhibited Area M45 - H17 for C[C@@H]1OC(Nc2ccc(C(=O)O)cc2)[C@H](O)[C@H](O)[C@H]1O (stereo partly drawn) [Compound 18, p-Aminobenzoic acid-N-L-rhamnoside] with Bacillus subtilis M45; value = 0

* * *

# Tested on: Bacillus subtilis M45
# ASSAY OVERVIEW: Mutagenicity Rec-assay, recombination repair deficient strain
# PROTOCOL CONDITIONS: 5,000 µg/disk, 16 hours at 37°C
We begin with a simple list: items and their reported Growth Inhibited Area M45.
Kindly answer with a numeric value in mm, unit omitted.

Consider the worked cases shown below.
Reported Growth Inhibited Area M45 for O=C([O-])c1ccccc1NC1O[C@H](CO)[C@H](O)[C@H](O)[C@H]1O.[Na+] (stereo partly drawn) [Compound 16, o-Aminobenzoic acid-N-D-galactoside] was 6

Reported Growth Inhibited Area M45 for O=C(O)c1ccccc1NC1OC[C@@H](O)[C@H](O)[C@H]1O (stereo partly drawn) [Compound 8, o-Aminobenzoic acid-N-D-xyloside] was 7

Reported Growth Inhibited Area M45 for O=C([O-])c1ccccc1NC1O[C@H](CO)[C@@H](O)[C@H](O)[C@H]1O.[Na+] (stereo partly drawn) [Compound 12, o-Aminobenzoic acid-N-D-glucoside] was 5

Reported Growth Inhibited Area M45 for O=C(O)c1ccc(NC2O[C@H](CO)[C@@H](O)[C@H](O)[C@@H]2O)cc1 (stereo partly drawn) [Compound 22, p-Aminobenzoic acid-N-D-mannoside] was 0

Reported Growth Inhibited Area M45 for CC1OC(Nc2ccccc2C(=O)[O-])C(O)C(O)C1O.[Na+] [Compound 20, o-Aminobenzoic acid-N-L-rhamnoside] was 6

Consider the record given below.
Reported Growth Inhibited Area M45 for O=C(O)c1ccc(NC2OC[C@H](O)[C@H](O)[C@H]2O)cc1 (stereo partly drawn) [Compound 2, p-Aminobenzoic acid-N-L-arabinoside] was 0

* * *

# Test system: Bacillus subtilis H17
# ASSAY OVERVIEW: Mutagenicity Rec-assay, recombination repair proficient strain
# PROTOCOL CONDITIONS: 5,000 µg/disk, 16 hours at 37°C
READOUT NAME: Growth Inhibited Area H17 (mm)
Kindly answer with a numeric value in mm, unit omitted.

Consider the worked cases shown below.
Reported Growth Inhibited Area H17 for O=C([O-])c1ccccc1NC1OCC(O)C(O)C1O.[Na+] [Compound 4, o-Aminobenzoic acid-N-L-arabinoside] was 4

Reported Growth Inhibited Area H17 for O=C(O)c1ccccc1NC1OC[C@@H](O)[C@H](O)[C@H]1O (stereo partly drawn) [Compound 8, o-Aminobenzoic acid-N-D-xyloside] was 3

Reported Growth Inhibited Area H17 for O=C(O)c1ccc(NC2OC[C@H](O)[C@H](O)[C@H]2O)cc1 (stereo partly drawn) [Compound 2, p-Aminobenzoic acid-N-L-arabinoside] was 0

Reported Growth Inhibited Area H17 for O=C(O)c1ccc(NC2O[C@H](CO)[C@H](O)[C@H](O)[C@H]2O)cc1 (stereo partly drawn) [Compound 14, p-Aminobenzoic acid-N-D-galactoside] was 0

Reported Growth Inhibited Area H17 for O=C(O)c1ccc(NC2OC[C@@H](O)[C@H](O)[C@H]2O)cc1 (stereo partly drawn) [Compound 6, p-Aminobenzoic acid-N-D-xyloside] was 0

Consider the record given below.
Reported Growth Inhibited Area H17 for C[C@@H]1OC(Nc2ccc(C(=O)O)cc2)[C@H](O)[C@H](O)[C@H]1O (stereo partly drawn) [Compound 18, p-Aminobenzoic acid-N-L-rhamnoside] was 0

* * *

We begin with a simple list: items and their reported Growth Inhibited Area H17.
# System: Bacillus subtilis H17
# ASSAY OVERVIEW: Mutagenicity Rec-assay, recombination repair proficient strain
# PROTOCOL CONDITIONS: 500 µg/disk, 16 hours at 37°C
Kindly answer with a numeric value in mm, unit omitted.

Consider the worked cases shown below.
// returns Growth Inhibited Area H17 for O=C(O)c1ccc(NC2O[C@H](CO)[C@@H](O)[C@H](O)[C@H]2O)cc1 (stereo partly drawn) [Compound 10, p-Aminobenzoic acid-N-D-glucoside] with Bacillus subtilis H17; value = 0

// returns Growth Inhibited Area H17 for O=C(O)c1ccccc1NC1OC[C@@H](O)[C@H](O)[C@H]1O (stereo partly drawn) [Compound 8, o-Aminobenzoic acid-N-D-xyloside] with Bacillus subtilis H17; value = 0

Consider the record given below.
// returns Growth Inhibited Area H17 for O=C([O-])c1ccccc1NC1O[C@H](CO)[C@@H](O)[C@H](O)[C@H]1O.[Na+] (stereo partly drawn) [Compound 12, o-Aminobenzoic acid-N-D-glucoside] with Bacillus subtilis H17; value = 0

* * *

# Test system: Bacillus subtilis M45
# ASSAY OVERVIEW: Mutagenicity Rec-assay, recombination repair deficient strain
# PROTOCOL CONDITIONS: 5,000 µg/disk, 16 hours at 37°C
READOUT NAME: Growth Inhibited Area M45
Just so you know, I need the unit written after the number.

Reported Growth Inhibited Area M45 for O=C([O-])c1ccccc1NC1OCC(O)C(O)C1O.[Na+] [Compound 4, o-Aminobenzoic acid-N-L-arabinoside] was 8 mm

Reported Growth Inhibited Area M45 for O=C(O)c1ccc(NC2OC[C@@H](O)[C@H](O)[C@H]2O)cc1 (stereo partly drawn) [Compound 6, p-Aminobenzoic acid-N-D-xyloside] was 0 mm

Further cases:
Reported Growth Inhibited Area M45 for C[C@@H]1OC(Nc2ccc(C(=O)O)cc2)[C@H](O)[C@H](O)[C@H]1O (stereo partly drawn) [Compound 18, p-Aminobenzoic acid-N-L-rhamnoside] was 0 mm

Reported Growth Inhibited Area M45 for O=C(O)c1ccc(NC2O[C@H](CO)[C@@H](O)[C@H](O)[C@H]2O)cc1 (stereo partly drawn) [Compound 10, p-Aminobenzoic acid-N-D-glucoside] was 0 mm

Reported Growth Inhibited Area M45 for O=C(O)c1ccc(NC2O[C@H](CO)[C@H](O)[C@H](O)[C@H]2O)cc1 (stereo partly drawn) [Compound 14, p-Aminobenzoic acid-N-D-galactoside] was 0 mm

Reported Growth Inhibited Area M45 for O=C(O)c1cccc(NC2O[C@H](CO)[C@@H](O)[C@H](O)[C@@H]2O)c1 (stereo partly drawn) [Compound 24, m-Aminobenzoic acid-N-D-mannoside] was 7 mm

* * *

# Tested on: Bacillus subtilis M45
# ASSAY OVERVIEW: Mutagenicity Rec-assay, recombination repair deficient strain
# PROTOCOL CONDITIONS: 500 µg/disk, 16 hours at 37°C
READOUT NAME: Growth Inhibited Area M45 (mm)
Kindly answer with a numeric value in mm, unit omitted.

Consider the worked cases shown below.
Reported Growth Inhibited Area M45 for O=C(O)c1ccc(NC2O[C@H](CO)[C@@H](O)[C@H](O)[C@H]2O)cc1 (stereo partly drawn) [Compound 10, p-Aminobenzoic acid-N-D-glucoside] was 0

Reported Growth Inhibited Area M45 for O=C(O)c1ccc(NC2O[C@H](CO)[C@H](O)[C@H](O)[C@H]2O)cc1 (stereo partly drawn) [Compound 14, p-Aminobenzoic acid-N-D-galactoside] was 0

Consider the record given below.
Reported Growth Inhibited Area M45 for O=C(O)c1ccc(NC2OC[C@@H](O)[C@H](O)[C@H]2O)cc1 (stereo partly drawn) [Compound 6, p-Aminobenzoic acid-N-D-xyloside] was 0

* * *

# Test system: Bacillus subtilis M45
# ASSAY OVERVIEW: Mutagenicity Rec-assay, recombination repair deficient strain
# PROTOCOL CONDITIONS: 5,000 µg/disk; difference between strains
READOUT NAME: Growth Inhibited Area M45 - H17 (mm)
Kindly answer with a numeric value in mm, unit omitted.

Reported Growth Inhibited Area M45 - H17 for O=C([O-])c1ccccc1NC1O[C@H](CO)[C@@H](O)[C@H](O)[C@H]1O.[Na+] (stereo partly drawn) [Compound 12, o-Aminobenzoic acid-N-D-glucoside] was 3

Reported Growth Inhibited Area M45 - H17 for O=C(O)c1ccc(NC2O[C@H](CO)[C@H](O)[C@H](O)[C@H]2O)cc1 (stereo partly drawn) [Compound 14, p-Aminobenzoic acid-N-D-galactoside] was 0

Reported Growth Inhibited Area M45 - H17 for CC1OC(Nc2ccccc2C(=O)[O-])C(O)C(O)C1O.[Na+] [Compound 20, o-Aminobenzoic acid-N-L-rhamnoside] was 4

Reported Growth Inhibited Area M45 - H17 for O=C(O)c1ccc(NC2OC[C@@H](O)[C@H](O)[C@H]2O)cc1 (stereo partly drawn) [Compound 6, p-Aminobenzoic acid-N-D-xyloside] was 0

Reported Growth Inhibited Area M45 - H17 for O=C(O)c1ccccc1NC1OC[C@@H](O)[C@H](O)[C@H]1O (stereo partly drawn) [Compound 8, o-Aminobenzoic acid-N-D-xyloside] was 4

Consider the record given below.
Reported Growth Inhibited Area M45 - H17 for O=C([O-])c1ccccc1NC1O[C@H](CO)[C@H](O)[C@H](O)[C@H]1O.[Na+] (stereo partly drawn) [Compound 16, o-Aminobenzoic acid-N-D-galactoside] was 5
